Assay: Quantitative High-Throughput drug screen in 47 multiple myeloma cell lines against the NCATS MIPE library collection: KMM1_JCRB cell viability assay (AID 1918960); note: nearly all actives have a fitted effect of over 30% in size
Details: KMM1 myeloma viability, CellTiter-Glo ATP luminescence, 48 h; series mostly up to 45.8 µM
Inconclusive results are not listed. Calls of active or inactive are those of the source. Calls come from the whole dose curve; as a rule, active = well fitted cell-killing curve with a large enough effect; inconclusive = small, poorly fitted or top-dose-only effect, or effect the other way; inactive = no such curve, though single readings can be large or run the other way.
One label from this list, please: active, inactive

Past entries and their recorded results:
compound	assigned-class
CCc1c2c(nc3ccc(OC(=O)N4CCC(N5CCCCC5)CC4)cc13)-c1cc3c(c(=O)n1C2)COC(=O)[C@]3(O)CC	active
Nc1nc(N)nc(-c2cc(Cl)ccc2Cl)n1	inactive
Cc1ccc(S(=O)(=O)N[C@@H](Cc2ccccc2)C(=O)CCl)cc1	active
O=S(=O)(c1cccc2cnccc12)N1CCCNCC1	inactive
OC(Cn1cncn1)(Cn1cncn1)c1ccc(F)cc1F	inactive

q: Returns: the outcome recorded for CCn1cc(C(=O)O)c(=O)c2cc(F)c(N3CCNCC3)cc21 in this assay.
a: inactive

q: Returns: the outcome recorded for CC(=O)[C@H]1CC[C@H]2[C@@H]3CCC4=CC(=O)CC[C@]4(C)[C@H]3CC[C@]12C in this assay.
a: inactive

q: Returns: the outcome recorded for O=P(O)(O)C(O)(Cc1cccnc1)P(=O)(O)O in this assay.
a: inactive

q: Returns: the outcome recorded for Nc1[nH]c(=O)ncc1F in this assay.
a: inactive

q: Returns: the outcome recorded for COc1cc(NCc2ccc3nc(N)nc(N)c3c2C)cc(OC)c1OC in this assay.
a: active

###

Assay: Quantitative High-Throughput drug screen in 47 multiple myeloma cell lines against the NCATS MIPE library collection: ARD_JJKsccE7 cell viability assay (AID 1918929)
Conditions: ARD myeloma cell line viability, CellTiter-Glo, 48 h; series mostly up to 45.8 µM
Inconclusive results are not listed. Calls of active or inactive are those of the source. The call rests on the fitted dose curve; in most records, active means well fitted cell-killing curve with a large enough effect; inconclusive means small, poorly fitted or top-dose-only effect, or effect the other way; inactive means no such curve, though single readings can be large or run the other way.
One label from this list, please: active, inactive

Past entries and their recorded results:
molecule	assigned-class
CCOC(=O)c1ccc(OC(=O)CCCCCN=C(N)N)cc1	inactive
CCC(C)(C)c1ccc(CC(C)CN2C[C@@H](C)O[C@@H](C)C2)cc1 (stereo not given in full)	inactive
COc1cc(NS(=O)(=O)c2ccc(N)cc2)nc(OC)n1	inactive
O=C(O)c1cccnc1	inactive

Then this molecule:
q: Returns: the outcome recorded for COC(c1ccccc1)(c1ccccc1)[C@H](Oc1nc(C)cc(C)n1)C(=O)O in this assay.
a: inactive

###

Assay: Quantitative High-Throughput drug screen in 47 multiple myeloma cell lines against the NCATS MIPE library collection: L363_DSMZ cell viability assay (AID 1918984); note: nearly all actives have a fitted effect of over 40% in size; note: potency is the fitted concentration of half-maximal effect
Conditions: L363 myeloma viability, CellTiter-Glo ATP luminescence, 48 h; series mostly up to 45.8 µM
Inconclusive results are not listed. The source made the active and inactive calls. Calls come from the whole dose curve; as a rule, active = well fitted cell-killing curve with a large enough effect; inconclusive = small, poorly fitted or top-dose-only effect, or effect the other way; inactive = no such curve, though single readings can be large or run the other way.
readout-label: Potency

Observe how each entry below is paired with its result.
molecule	result
CN(C)CCc1c[nH]c2ccc(C[C@H]3COC(=O)N3)cc12	inactive
NC(=O)N1c2ccccc2CC(=O)c2ccccc21	inactive
CCC(=O)O[C@]1(C(=O)CCl)[C@@H](C)C[C@H]2[C@@H]3CCC4=CC(=O)C=C[C@]4(C)[C@@]3(F)[C@@H](O)C[C@@]21C	0.0093 µM (active)
CN(Cc1cc(Br)cc(Br)c1N)C1CCCCC1	inactive

q: Tell me measured Potency for COc1ccc2c(c1)c(CC(=O)OCC(=O)O)c(C)n2C(=O)c1ccc(Cl)cc1 please.
a: inactive

q: Tell me measured Potency for CCOC(=O)c1ccc(OC(=O)CCCCCN=C(N)N)cc1 please.
a: inactive

q: Tell me measured Potency for N=C(N)c1ccc(OCCCCCOc2ccc(C(=N)N)cc2)cc1 please.
a: inactive

q: Tell me measured Potency for COc1ccc(C(=O)CC(=O)c2ccc(C(C)(C)C)cc2)cc1 please.
a: 6.62 µM (active)

q: Tell me measured Potency for COc1nc(N)nc2c1ncn2[C@@H]1O[C@H](CO)[C@@H](O)[C@@H]1O please.
a: inactive

q: Tell me measured Potency for CCOCC(O)COc1ccc(NC(=O)CC[S+](C)C)cc1 (stereo not given) please.
a: inactive
